Target: rat TRPA1 (Rattus norvegicus)
Sequence (Q6RI86 whole entry): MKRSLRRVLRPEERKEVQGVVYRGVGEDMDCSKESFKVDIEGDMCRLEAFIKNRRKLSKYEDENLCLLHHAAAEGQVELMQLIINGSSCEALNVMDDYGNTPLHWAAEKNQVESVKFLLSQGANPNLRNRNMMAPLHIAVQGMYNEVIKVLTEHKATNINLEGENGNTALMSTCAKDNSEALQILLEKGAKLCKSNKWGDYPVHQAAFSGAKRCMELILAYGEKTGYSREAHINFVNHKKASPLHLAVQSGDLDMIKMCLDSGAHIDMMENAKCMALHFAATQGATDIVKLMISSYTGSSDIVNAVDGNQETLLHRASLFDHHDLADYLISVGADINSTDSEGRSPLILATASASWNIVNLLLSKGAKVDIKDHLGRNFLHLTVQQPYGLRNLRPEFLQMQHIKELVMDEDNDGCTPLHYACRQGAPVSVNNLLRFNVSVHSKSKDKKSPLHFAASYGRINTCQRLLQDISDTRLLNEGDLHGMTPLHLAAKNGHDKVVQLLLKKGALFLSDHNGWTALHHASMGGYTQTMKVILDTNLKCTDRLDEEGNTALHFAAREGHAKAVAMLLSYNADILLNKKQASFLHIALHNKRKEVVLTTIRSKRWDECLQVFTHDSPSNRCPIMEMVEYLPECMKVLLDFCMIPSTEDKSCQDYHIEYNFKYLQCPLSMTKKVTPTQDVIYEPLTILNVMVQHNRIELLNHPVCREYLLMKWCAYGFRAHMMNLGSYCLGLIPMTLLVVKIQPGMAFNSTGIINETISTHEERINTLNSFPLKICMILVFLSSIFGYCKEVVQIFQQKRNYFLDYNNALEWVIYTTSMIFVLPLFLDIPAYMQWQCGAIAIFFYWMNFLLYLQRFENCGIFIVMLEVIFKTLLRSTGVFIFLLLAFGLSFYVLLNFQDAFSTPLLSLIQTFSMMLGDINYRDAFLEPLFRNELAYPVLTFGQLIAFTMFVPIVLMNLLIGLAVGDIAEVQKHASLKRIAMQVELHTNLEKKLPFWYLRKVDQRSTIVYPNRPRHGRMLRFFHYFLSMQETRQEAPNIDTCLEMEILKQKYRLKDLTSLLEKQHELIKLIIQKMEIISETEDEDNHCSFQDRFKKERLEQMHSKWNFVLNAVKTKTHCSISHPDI
Protocol: Two-electrode voltage clamp of Xenopus oocytes expressing rat TRPA1
Format: cell-based
Measurement parameters: EC50 for current activation at +100 mV, +100 mV; nominally Ca2+-free bath
pEC50: −log10 of the molar value.
Let's look at some compounds and their measured pEC50.
Assay metric: pEC50

Compound | Assay metric | Test result
O=C(O)c1ccccc1Nc1cccc(C(F)(F)F)c1 [FFA, flufenamic acid] | pEC50 | 4.11
O=C(O)c1cccnc1Nc1cccc(C(F)(F)F)c1 [NFA, niflumic acid] | pEC50 | 3.62

###

Target: human TRPA1 endogenously expressed in WI-38 fibroblasts (Homo sapiens, UniProt O75762)
Sequence (O75762 whole entry): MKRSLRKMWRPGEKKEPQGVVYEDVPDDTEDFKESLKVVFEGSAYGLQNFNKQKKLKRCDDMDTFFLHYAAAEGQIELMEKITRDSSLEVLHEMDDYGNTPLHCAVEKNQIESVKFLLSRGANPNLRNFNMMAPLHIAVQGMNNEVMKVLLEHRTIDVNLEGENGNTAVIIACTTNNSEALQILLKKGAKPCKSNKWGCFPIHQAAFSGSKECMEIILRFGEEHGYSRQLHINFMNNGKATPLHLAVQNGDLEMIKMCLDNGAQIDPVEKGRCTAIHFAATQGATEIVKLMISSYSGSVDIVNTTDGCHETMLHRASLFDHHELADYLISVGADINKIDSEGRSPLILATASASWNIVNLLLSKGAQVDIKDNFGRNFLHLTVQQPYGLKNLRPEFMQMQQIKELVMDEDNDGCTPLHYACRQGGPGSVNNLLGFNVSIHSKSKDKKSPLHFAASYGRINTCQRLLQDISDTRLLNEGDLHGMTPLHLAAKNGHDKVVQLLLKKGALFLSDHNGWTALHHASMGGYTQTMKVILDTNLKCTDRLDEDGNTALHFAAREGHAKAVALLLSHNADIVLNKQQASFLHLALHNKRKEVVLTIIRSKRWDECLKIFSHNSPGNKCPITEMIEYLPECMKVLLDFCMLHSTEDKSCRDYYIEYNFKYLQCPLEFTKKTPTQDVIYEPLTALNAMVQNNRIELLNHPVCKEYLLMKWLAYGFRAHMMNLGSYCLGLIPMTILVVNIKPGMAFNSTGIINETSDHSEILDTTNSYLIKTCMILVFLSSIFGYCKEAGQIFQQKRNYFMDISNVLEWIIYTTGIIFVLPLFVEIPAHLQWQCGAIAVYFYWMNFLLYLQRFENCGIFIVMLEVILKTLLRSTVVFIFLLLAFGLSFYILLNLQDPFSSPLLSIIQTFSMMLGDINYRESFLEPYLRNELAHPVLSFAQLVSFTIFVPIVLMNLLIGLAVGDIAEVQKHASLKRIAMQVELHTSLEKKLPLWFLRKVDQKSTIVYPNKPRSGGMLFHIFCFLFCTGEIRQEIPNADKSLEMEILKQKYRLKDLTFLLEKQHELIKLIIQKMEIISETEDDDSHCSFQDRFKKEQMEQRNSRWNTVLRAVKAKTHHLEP
Protocol: Fluo4 [Ca2+]i assay in WI-38 fibroblasts
Format: cell-based
Assay metric: log10 of EC50 (log10 of the value in µM)

Compound | Assay metric | Test result
COC(=O)C1=C(C)NC(C)=C(C(=O)OC)C1c1ccccc1[N+](=O)[O-] | log10 of EC50 | 2.20
CC(C(=O)O)c1ccc(-c2ccccc2)c(F)c1 (racemic) [flurbiprofen, (±)-flurbiprofen] | log10 of EC50 | 2.53
O=C/C=C/c1ccccc1 | log10 of EC50 | 2.60
COc1ccc2c(c1)c(CC(=O)O)c(C)n2C(=O)c1ccc(Cl)cc1 | log10 of EC50 | 2.67
O=C(O)c1cccnc1Nc1cccc(C(F)(F)F)c1 | log10 of EC50 | 1.45

Numbers sourced from paper PMC2828537.
